target: O-acetylserine sulfhydrylase (Mycobacterium tuberculosis) (UniProt P9WP55); conditions: at 500 nM
Description: Inhibition of Mycobacterium tuberculosis N-terminal His-6-tagged recombinant CysK1 expressed in Escherichia coli BL21 (DE3) at 500 nM after 20 mins by spectrophotometric analysis
Would you mind labelling by inhibition? At or over 50% is Criterion met, under is Criterion not met.

CCCN1C(=O)/C(=C/c2ccc(OCC(=O)OC)cc2)S/C1=N\c1cccc(C(=O)O)c1 ... Criterion not met
CN1C(=O)/C(=C/c2ccc(OCc3ccccc3)cc2)S/C1=N\c1cccc(C(=O)O)c1 ... Criterion met
CN1C(=O)/C(=C/c2cccc(C(F)(F)F)c2)S/C1=N\c1cccc(C(=O)O)c1 ... Criterion not met
CCN1C(=O)/C(=C/c2ccccc2Cl)S/C1=N\c1cccc(C(=O)O)c1 ... Criterion not met
CN1C(=O)/C(=C/c2ccc(Cl)c(Cl)c2)S/C1=N\c1cccc(C(=O)O)c1 ... Criterion met

# bool: inhibition of CCN1C(=O)/C(=C/c2ccccc2OC)S/C1=N\c1cccc(C(=O)O)c1 >= 50%
Criterion met

# bool: inhibition of CN1C(=O)/C(=C/c2ccco2)S/C1=N\c1cccc(C(=O)O)c1 >= 50%
Criterion not met

# bool: inhibition of CCN1C(=O)/C(=C/c2cccc(C)c2)S/C1=N\c1cccc(C(=O)O)c1 >= 50%
Criterion not met

# bool: inhibition of CCN1C(=O)/C(=C/c2ccccc2)S/C1=N\c1cccc(C(=O)O)c1 >= 50%
Criterion not met

---

# pIC50 per entry for O-acetylserine sulfhydrylase (Mycobacterium tuberculosis, UniProt P9WP55)
Numbers only, as −log10 of the molar value.

CCCN1C(=O)/C(=C/c2ccc(O)cc2)S/C1=N\c1cccc(C(=O)O)c1 ... 7.02
COc1ccccc1/C=C1\S/C(=N\c2cccc(C(=O)O)c2)N(C)C1=O ... 6.80
CCN1C(=O)/C(=C/c2ccc(O)cc2)S/C1=N\c1cccc(C(=O)O)c1 ... 6.99
COc1ccc(/C=C2\S/C(=N\c3cccc(C(=O)O)c3)N(C)C2=O)cc1OC ... 7.27

# ---- query compound ----
Query CN1C(=O)/C(=C/c2ccc(O)cc2)S/C1=N\c1cccc(C(=O)O)c1 yields pIC50 of 7.20

---

target: O-acetylserine sulfhydrylase (Mycobacterium tuberculosis); settings: at 500 nM
Would you mind labelling by inhibition? At or over 50% is rule met, under is rule not met.

The examples below pair each entry with its known result.
COC(=O)COc1ccccc1/C=C1\S/C(=N\c2cccc(C(=O)O)c2)N(C)C1=O ... rule met
CN1C(=O)/C(=C/c2ccc(Cl)cc2Cl)S/C1=N\c1cccc(C(=O)O)c1 ... rule met
CCN1C(=O)/C(=C/c2ccc(Cl)c(Cl)c2)S/C1=N\c1cccc(C(=O)O)c1 ... rule not met

# bool: inhibition of CCN1C(=O)/C(=C/c2ccc([N+](=O)[O-])cc2)S/C1=N\c1cccc(C(=O)O)c1 >= 50%
rule not met

# bool: inhibition of COc1ccc(/C=C2\S/C(=N\c3cccc(C(=O)O)c3)N(C)C2=O)cc1 >= 50%
rule met

# bool: inhibition of CC(C)c1ccc(/C=C2\S/C(=N\c3cccc(C(=O)O)c3)N(C)C2=O)cc1 >= 50%
rule met

---

experiment: Lipophilicity, log P of the compound; assay type: physicochemical; settings: octanol/water
measurement-name: logP
Answers are plain numbers.

Query CN1C(=O)/C(=C/c2ccc(F)cc2)S/C1=N\c1cccc(C(=O)O)c1 yields logP of 2.7

---

biological target: O-acetylserine sulfhydrylase (Mycobacterium tuberculosis) (UniProt P9WP55); conditions: at 500 nM
Would you mind labelling by inhibition? At or over 30% is T, under is F.

# bool: inhibition of C=CCN1C(=O)/C(=C/c2ccccc2OCC(=O)O)S/C1=N\c1cccc(C(=O)O)c1 >= 30%
F

# bool: inhibition of COC(=O)COc1ccc(/C=C2\S/C(=N\c3cccc(C(=O)O)c3)N(C(C)C)C2=O)cc1 >= 30%
F

# bool: inhibition of CCN1C(=O)/C(=C/c2ccc(OCC(=O)O)cc2)S/C1=N\c1cccc(C(C)=O)c1 >= 30%
F

# bool: inhibition of CCN1C(=O)/C(=C/c2cccc(C(F)(F)F)c2)S/C1=N\c1cccc(C(=O)O)c1 >= 30%
F

---

Provide the reported inhibition of each item.
target: O-acetylserine sulfhydrylase (Mycobacterium tuberculosis) (UniProt P9WP55); settings: at 500 nM
Answers are plain numbers, in %.

Past entries and their recorded results:
CCCCN1C(=O)/C(=C/c2ccc(OCC(=O)O)cc2)S/C1=N\c1cccc(C(=O)O)c1 ... 0
CCN1C(=O)/C(=C/c2ccc(N(C)C)cc2)S/C1=N\c1cccc(C(=O)O)c1 ... 52.4
CC(=O)c1cccc(/N=C2\S/C(=C\c3ccc(O)cc3)C(=O)N2C(C)C)c1 ... 8.2

Hi, could you look up inhibition for each item in my list?
1. CN1C(=O)/C(=C/c2ccc(N(C)C)cc2)S/C1=N\c1cccc(C(=O)O)c1
2. CCN1C(=O)/C(=C/c2ccc(Cl)cc2)S/C1=N\c1cccc(C(=O)O)c1
3. CN1C(=O)/C(=C/c2ccc([N+](=O)[O-])cc2)S/C1=N\c1cccc(C(=O)O)c1
4. C=CCN1C(=O)/C(=C/c2ccc(O)cc2)S/C1=N\c1cccc(C(=O)O)c1
5. CN1C(=O)/C(=C/c2ccc(F)cc2)S/C1=N\c1cccc(C(=O)O)c1
6. CN1C(=O)/C(=C/c2ccccc2Cl)S/C1=N\c1cccc(C(=O)O)c1

[93.4, 54.4, 51.8, 92.3, 89.5, 54.6]

---

target: O-acetylserine sulfhydrylase (Mycobacterium tuberculosis); assay: Inhibition of Mycobacterium tuberculosis CysK1
measurement-name: IC50
Give me the value, and tack the unit on after it.

CN1C(=O)/C(=C/c2ccccc2OCC(=O)O)S/C1=N\c1cccc(C(=O)O)c1 ... 103 nM

# ---- query compound ----
Query CC[C@H](C)[C@H](NC(=O)[C@H](CO)NC(=O)[C@H](Cc1ccccc1)NC(=O)[C@@H](N)CC(=O)O)C(=O)O yields IC50 of 2900 nM

---

molecular target: O-acetylserine sulfhydrylase (Mycobacterium tuberculosis) (UniProt P9WP55); conditions: at 500 nM
Provide the reported inhibition of each item.
Give bare numbers, in %.

Hi, could you look up inhibition for each item in my list?
1. CCCN1C(=O)/C(=C/c2ccc(OCC(=O)O)cc2)S/C1=N\c1cccc(C(=O)O)c1
2. CCN1C(=O)/C(=C/c2ccccn2)S/C1=N\c1cccc(C(=O)O)c1
3. C=CCN1C(=O)/C(=C/c2ccc(OCC(=O)O)cc2)S/C1=N\c1cccc(C(=O)O)c1
4. CN1C(=O)/C(=C/c2ccccn2)S/C1=N\c1cccc(C(=O)O)c1
5. CN1C(=O)/C(=C/c2ccccc2)S/C1=N\c1cccc(C(=O)O)c1

[0, 38.7, 1.4, 64.4, 52.2]

---

molecular target: O-acetylserine sulfhydrylase (Mycobacterium tuberculosis) (UniProt P9WP55); conditions: at 500 nM
Provide the reported inhibition of each item.
One number for each entry, in %.

Hi, could you look up inhibition for each item in my list?
1. CCCN1C(=O)/C(=C/c2ccc(O)cc2)S/C1=N\c1cccc(C(C)=O)c1
2. CC(=O)c1cccc(/N=C2\S/C(=C\c3ccc(OCC(=O)O)cc3)C(=O)N2C(C)C)c1
3. CCN1C(=O)/C(=C/c2ccccc2C)S/C1=N\c1cccc(C(=O)O)c1
4. COc1ccccc1/C=C1\S/C(=N\c2cccc(C(=O)O)c2)N(C)C1=O
5. CCN1C(=O)/C(=C/c2ccc(O)c(OC)c2)S/C1=N\c1cccc(C(=O)O)c1
6. CCCN1C(=O)/C(=C/c2ccc(OCC(=O)OC)cc2)S/C1=N\c1cccc(C(C)=O)c1
7. CCN1C(=O)/C(=C/c2ccc(C(C)C)cc2)S/C1=N\c1cccc(C(=O)O)c1

10.7
10.2
47
96.9
75.6
0
49.6

Hi, could you look up inhibition for each item in my list?
1. CC(C)N1C(=O)/C(=C/c2ccc(OCC(=O)O)cc2)S/C1=N\c1cccc(C(=O)O)c1
2. CN1C(=O)/C(=C/c2ccc(Cl)cc2)S/C1=N\c1cccc(C(=O)O)c1

12.6
59.7

---

target: O-acetylserine sulfhydrylase (Mycobacterium tuberculosis) (UniProt P9WP55); conditions: at 500 nM
Provide the reported inhibition of each item.

Past entries and their recorded results:
COc1cc(/C=C2\S/C(=N\c3cccc(C(=O)O)c3)N(C)C2=O)ccc1O ... 87.5%
CCN1C(=O)/C(=C/c2ccc[nH]2)S/C1=N\c1cccc(C(=O)O)c1 ... 32.5%
CCN1C(=O)/C(=C/c2ccc(O)cc2)S/C1=N\c1cccc(C(=O)O)c1 ... 90.2%

Hi, could you look up inhibition for each item in my list?
1. CCN1C(=O)/C(=C/c2ccc(OCc3ccccc3)cc2)S/C1=N\c1cccc(C(=O)O)c1
2. CCN1C(=O)/C(=C/c2cnccc2C(F)(F)F)S/C1=N\c1cccc(C(=O)O)c1
3. CCN1C(=O)/C(=C/c2ccc(OCC(=O)OC)cc2)S/C1=N\c1cccc(C(=O)O)c1
4. CN1C(=O)/C(=C/c2ccc(C(F)(F)F)cc2)S/C1=N\c1cccc(C(=O)O)c1
5. CN1C(=O)/C(=C/c2cccc(O)c2)S/C1=N\c1cccc(C(=O)O)c1
6. COc1ccc(/C=C2\S/C(=N\c3cccc(C(=O)O)c3)N(C)C2=O)cc1OC

1: 81.1%; 2: 46%; 3: 9.9%; 4: 72.1%; 5: 56.8%; 6: 89.7%
